molecular target: full-length beta-Catenin (Uniprot ID P35222) (Homo sapiens (Human)) (UniProt P35222); assay: fluorescence polarization competition; full-length beta-catenin + 5FAM-TCF4 10-53 probe, peptide titrated
Sequence (P35222 2-781 limits assumed): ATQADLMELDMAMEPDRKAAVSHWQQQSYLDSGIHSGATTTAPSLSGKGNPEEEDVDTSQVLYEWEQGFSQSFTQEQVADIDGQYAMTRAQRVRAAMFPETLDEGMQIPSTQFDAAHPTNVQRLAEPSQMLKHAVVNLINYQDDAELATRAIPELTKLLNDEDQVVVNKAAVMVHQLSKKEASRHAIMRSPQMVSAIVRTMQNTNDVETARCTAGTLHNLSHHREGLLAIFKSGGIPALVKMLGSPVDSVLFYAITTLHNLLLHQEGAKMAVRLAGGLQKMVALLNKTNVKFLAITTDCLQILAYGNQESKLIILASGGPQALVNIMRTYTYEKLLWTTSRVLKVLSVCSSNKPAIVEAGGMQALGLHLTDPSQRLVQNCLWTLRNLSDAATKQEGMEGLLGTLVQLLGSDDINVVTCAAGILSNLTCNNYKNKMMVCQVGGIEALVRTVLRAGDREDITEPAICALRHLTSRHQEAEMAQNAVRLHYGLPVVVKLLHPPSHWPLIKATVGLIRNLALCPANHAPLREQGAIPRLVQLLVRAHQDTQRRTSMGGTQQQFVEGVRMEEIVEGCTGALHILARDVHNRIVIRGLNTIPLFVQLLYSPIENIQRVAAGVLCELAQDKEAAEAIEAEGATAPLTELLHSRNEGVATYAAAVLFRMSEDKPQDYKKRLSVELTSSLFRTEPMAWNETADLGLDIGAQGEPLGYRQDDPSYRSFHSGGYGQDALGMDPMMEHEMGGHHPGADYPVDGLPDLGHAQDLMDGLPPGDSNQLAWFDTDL
pIC50: −log10 of the molar value. Starred links: 1 amine or outer side, 2 acyl side, 3 side chain; linkers in the order of their positions; H or OH if unused. Positions of bridges follow the written chain, without caps; N, C: chain ends. Non-standard residues stand in square brackets, D forms with d. Primed or numbered codes have the meaning given here. B5(4) = 2,2-bis(4-pentenyl)glycine = 2-amino-2-(pent-4-en-1-yl)hept-6-enoic acid (stitching residue), C=CCCCC(CCCC=C)(N[*:1])C(=O)[*:2]; Bta = N[C@@H](Cc1csc2ccccc12)C(=O)O; αAllylPro = C=CC[C@@]1(C(=O)O)CCCN1; tBuAla = CC(C)(C)C[C@H](N)C(=O)O; S8 = C=CCCCCCC[C@](C)(N)C(=O)O; hSer = N[C@@H](CCO)C(=O)O
ATTRIBUTE MEASURED: pIC50

INSERT INTO assay_data (binder, observed_measurement) VALUES
  ('Ac-[αAllylPro]D[tBuAla][B5(4)]DDAAF[hSer][S8]F[Bta]Q-NH2 (staple 1-4, 4-11) [I-1388]', 7.74);
